Test system: Raji
Assay: Inhibition of TPA-induced EBV-early antigen activation in human Raji cells assessed as EA activation at 10 mol ratio relative to TPA
Format: cell-based
Set-up: scale not given: the % may be the effect or the level left
Conditions: human gammaherpesvirus 4
Entries annotated with measured Activity
measured property: Activity (%)

[[record]]
structure = "C/C=C(/C)C(=O)O[C@H]1c2cc3c(c4c2[C@@]2(CO4)C(=O)C(OC)=C(OC)C=C2C[C@@H](C)[C@H]1C)OCO3"
measured_property = "Activity"
unit_tag = "%"
reading = 100

[[record]]
structure = "COc1c2c(cc3c1-c1c(cc4c(c1OC)OCO4)C[C@H](C)[C@H](C)C3)OCO2"
measured_property = "Activity"
unit_tag = "%"
reading = 92.1

[[record]]
structure = "COc1cc2c(c(OC)c1OC)-c1c(cc3c(c1OC)OCO3)C[C@H](C)[C@](C)(O)C2"
measured_property = "Activity"
unit_tag = "%"
reading = 96.6

[[record]]
structure = "C/C=C(/C)C(=O)O[C@H]1c2cc3c(c(OC)c2-c2c(cc4c(c2OC)OCO4)C[C@H](C)[C@]1(C)O)OCO3"
measured_property = "Activity"
unit_tag = "%"
reading = 100


====

Test system: Raji
Assay: Cytotoxicity against human Raji cells at 1000 mol ratio by trypan blue staining method
Assay type: cell-based
measured property: Activity (%)

[[record]]
molecule = "C/C=C(/C)C(=O)O[C@H]1c2cc3c(c(OC)c2-c2c(cc4c(c2OC)OCO4)C[C@H](C)[C@@H]1C)OCO3"
target_under_test = "Raji"
reading = 60

[[record]]
molecule = "C/C=C(/C)C(=O)O[C@H]1c2cc3c(c4c2[C@@]2(CO4)C(=O)C(=O)C(OC)=C/C2=C/[C@@H](C)[C@H]1C)OCO3"
target_under_test = "Raji"
reading = 60

[[record]]
molecule = "COc1cc2c(c(OC)c1OC)-c1c(cc3c(c1OC)OCO3)C[C@H](C)[C@](C)(O)[C@H]2OC(=O)c1ccccc1"
target_under_test = "Raji"
reading = 60

[[record]]
molecule = "C/C=C(/C)C(=O)O[C@H]1c2cc3c(c4c2C(C(=O)C(=O)OC)(CO4)/C(=C/C(=O)OC)C[C@@H](C)[C@H]1C)OCO3 (some centres undefined)"
target_under_test = "Raji"
reading = 60

[[record]]
molecule = "COc1cc2c(c(OC)c1OC)-c1c(cc3c(c1OC)OCO3)[C@H](OC(=O)c1ccccc1)[C@@](C)(O)[C@@H](C)C2"
target_under_test = "Raji"
reading = 60

[[record]]
molecule = "COc1cc2c(c(OC)c1OC)-c1c(cc3c(c1OC)OCO3)C[C@H](C)[C@@](C)(O)C2"
target_under_test = "Raji"
reading = 70

[[record]]
molecule = "C/C=C(/C)C(=O)O[C@H]1c2cc3c(c4c2[C@]2(CO4)C(=CC(=O)C(OC)=C2OC)C[C@@H](C)[C@H]1C)OCO3"
target_under_test = "Raji"
reading = 60

[[record]]
molecule = "C/C=C(/C)C(=O)O[C@H]1c2cc3c(c4c2[C@@]2(CO4)C(=O)C(OC)=C(OC)C=C2C[C@@H](C)[C@H]1C)OCO3"
target_under_test = "Raji"
reading = 70

[[record]]
molecule = "COc1cc2c(c(OC)c1OC)-c1c(cc3c(c1OC)OCO3)[C@@H]1O[C@H]2[C@@H](C)[C@H]1C"
target_under_test = "Raji"
reading = 70

[[record]]
molecule = "C/C=C(/C)C(=O)O[C@H]1c2cc3c(c(OC)c2-c2c(cc4c(c2OC)OCO4)C[C@H](C)[C@]1(C)O)OCO3"
target_under_test = "Raji"
reading = 60

[[record]]
molecule = "COc1cc2c(c(OC)c1OC)-c1c(cc3c(c1OC)OCO3)[C@H](OC(C)=O)[C@H](C)[C@H](C)C2"
target_under_test = "Raji"
reading = 60

[[record]]
molecule = "COc1c2c(cc3c1-c1c(cc4c(c1OC)OCO4)C[C@H](C)[C@H](C)C3)OCO2"
target_under_test = "Raji"
reading = 70

[[record]]
molecule = "C/C=C(/C)C(=O)O[C@H]1c2cc(OC)c(OC)c(OC)c2-c2c(cc3c(c2OC)OCO3)[C@H](OC(C)=O)[C@H](C)[C@@H]1C"
target_under_test = "Raji"
reading = 60

[[record]]
molecule = "COc1c2c(cc3c1-c1c(cc4c(c1OC)OCO4)[C@H](OC(=O)c1ccccc1)[C@@H](C)[C@@H](C)C3)OCO2"
target_under_test = "Raji"
reading = 60


====

Test system: Raji
Assay: Inhibition of TPA-induced EBV-early antigen activation in human Raji cells assessed as EA activation at 500 mol ratio relative to TPA
Assay type: cell-based
Parameters: scale not given: the % may be the effect or the level left
Conditions: human gammaherpesvirus 4
Entries and their measured Activity follow.
measured property: Activity (%)

[[record]]
compound = "C/C=C(/C)C(=O)O[C@H]1c2cc3c(c4c2[C@]2(CO4)C(=CC(=O)C(OC)=C2OC)C[C@@H](C)[C@H]1C)OCO3"
target_under_test = "Raji"
unit_tag = "%"
reading = 52

[[record]]
compound = "COc1cc2c(c(OC)c1OC)-c1c(cc3c(c1OC)OCO3)[C@@H]1O[C@H]2[C@@H](C)[C@H]1C"
target_under_test = "Raji"
unit_tag = "%"
reading = 51.6

[[record]]
compound = "C/C=C(/C)C(=O)O[C@H]1c2cc(OC)c(OC)c(OC)c2-c2c(cc3c(c2OC)OCO3)[C@H](OC(C)=O)[C@H](C)[C@@H]1C"
target_under_test = "Raji"
unit_tag = "%"
reading = 59

[[record]]
compound = "COc1cc2c(c(OC)c1OC)-c1c(cc3c(c1OC)OCO3)C[C@H](C)[C@](C)(O)C2"
target_under_test = "Raji"
unit_tag = "%"
reading = 52.5

[[record]]
compound = "C/C=C(/C)C(=O)O[C@H]1c2cc3c(c(OC)c2-c2c(cc4c(c2OC)OCO4)C[C@H](C)[C@@H]1C)OCO3"
target_under_test = "Raji"
unit_tag = "%"
reading = 55.6

[[record]]
compound = "C/C=C(/C)C(=O)O[C@H]1c2cc3c(c4c2C(C(=O)C(=O)OC)(CO4)/C(=C/C(=O)OC)C[C@@H](C)[C@H]1C)OCO3 (stereo partly specified)"
target_under_test = "Raji"
unit_tag = "%"
reading = 58.9


====

Some molecules, each annotated with its measured Activity.
System: Raji
Assay: Inhibition of TPA-induced EBV-early antigen activation in human Raji cells assessed as EA activation at 10 mol ratio relative to TPA
Format: cell-based
Set-up: scale not given: the % may be the effect or the level left
Settings: human gammaherpesvirus 4
measured property: Activity (%)

[[record]]
structure = "C/C=C(/C)C(=O)O[C@H]1c2cc3c(c4c2[C@@]2(CO4)C(=O)C(=O)C(OC)=C/C2=C/[C@@H](C)[C@H]1C)OCO3"
unit_tag = "%"
reading = 94.8

[[record]]
structure = "C/C=C(/C)C(=O)O[C@H]1c2cc3c(c4c2[C@]2(CO4)C(=CC(=O)C(OC)=C2OC)C[C@@H](C)[C@H]1C)OCO3"
unit_tag = "%"
reading = 100

[[record]]
structure = "COc1c2c(cc3c1-c1c(cc4c(c1OC)OCO4)[C@H](OC(=O)c1ccccc1)[C@@H](C)[C@@H](C)C3)OCO2"
unit_tag = "%"
reading = 100

[[record]]
structure = "C/C=C(/C)C(=O)O[C@H]1c2cc3c(c(OC)c2-c2c(cc4c(c2OC)OCO4)C[C@H](C)[C@@H]1C)OCO3"
unit_tag = "%"
reading = 100


Data origin: ChEMBL document CHEMBL1150626
